Origin of the recorded values: patent US20250059171A1

Target: HCoV-229E 3CLpro (Human coronavirus 229E)
Sequence (P0C6X1 2966-3267): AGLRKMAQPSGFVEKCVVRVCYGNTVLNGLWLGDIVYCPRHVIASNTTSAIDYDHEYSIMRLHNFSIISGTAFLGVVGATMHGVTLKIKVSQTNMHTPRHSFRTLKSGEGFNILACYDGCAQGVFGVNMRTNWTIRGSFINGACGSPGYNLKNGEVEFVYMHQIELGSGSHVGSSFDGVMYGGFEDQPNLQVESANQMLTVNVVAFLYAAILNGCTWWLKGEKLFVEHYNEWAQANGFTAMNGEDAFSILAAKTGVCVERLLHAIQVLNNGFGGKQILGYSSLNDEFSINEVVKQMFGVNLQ
hey, just use met if measured IC50 is less than 30 nM, otherwise not met

O=C1NCC[C@H]1CN(NC(=O)[C@@H]1[C@H]2CCC[C@H]2CN1C(=O)[C@@H](NC(=O)C(F)(F)F)C1CCC1)C(=O)[C@H](F)Cl = not met
CC[C@H](C)[C@H](NC(=O)[C@H](F)Cl)C(=O)N1C[C@H]2[C@@H]([C@H]1C(=O)NN(C[C@H]1CCCNC1=O)C(=O)[C@H](F)Cl)C2(C)C = met
CC[C@H](C)[C@H](NC(=O)C1CC(F)(F)C1)C(=O)N1C[C@@H]2CCC[C@@H]2[C@H]1C(=O)NN(C[C@@H]1CCNC1=O)C(=O)[C@H](F)Cl = met
CCC(C)(C)[C@H](NC(=O)C(F)F)C(=O)N1C[C@H]2[C@@H]([C@H]1C(=O)NN(C[C@@H]1CCNC1=O)C(=O)[C@H](F)Cl)C2(C)C = not met
CCC(CC)[C@H](NC(=O)C(F)F)C(=O)N1C[C@@H]2CCC[C@@H]2[C@H]1C(=O)NN(C[C@@H]1CCCNC1=O)C(=O)[C@H](F)Cl = met

Please examine the following record next.
(Q) Take the compound CC(C)(C)[C@H](NC(=O)C12CC(C1)C2)C(=O)N1C[C@H]2[C@@H]([C@H]1C(=O)NN(C[C@@H]1CCNC1=O)C(=O)[C@H](F)Cl)C2(C)C and say whether its IC50 is less than 30 nM.
(A) not met

---

Measured pIC50 accompanies every entry in the list below.
Biological target: SARS-CoV-2 3CLpro (Severe acute respiratory syndrome coronavirus 2)
Experiment: biochemical
pIC50 (log units): -log10 of the concentration in mol/L.

CC(C)(C)[C@H](NC(=O)C(F)(F)F)C(=O)N1C[C@H]2[C@@H]([C@H]1C(=O)NN(C[C@H]1CCCNC1=O)C(=O)[C@H](F)Cl)C2(C)C (single isomer, unassigned) [Example 163a] = 8.05
CC[C@H](C)[C@H](NC(=O)C(C)F)C(=O)N1C[C@@H]2CCC[C@@H]2[C@H]1C(=O)NN(C[C@@H]1CCNC1=O)C(=O)[C@H](F)Cl (mixture of isomers) = 8.10
CC(C)(C)[C@H](NC(=O)C(F)(F)F)C(=O)N1C[C@@H]2CCC[C@@H]2[C@H]1C(=O)NN(C[C@@H]1CCNC1=O)C(=O)[C@@H](F)Cl = 7.92
CC[C@@H](C)[C@H](NC(=O)C1(F)CC1)C(=O)N1C[C@H]2[C@@H]([C@H]1C(=O)NN(C[C@@H]1CCNC1=O)C(=O)[C@@H](F)Cl)C2(C)C = 7.59

(Q) Identify measured pIC50 associated with CC1(C)[C@@H]2[C@@H](C(=O)NN(C[C@@H]3CCNC3=O)C(=O)[C@H](F)Cl)N(C(=O)[C@H](Cc3ccncc3)NC(=O)C(F)(F)F)C[C@@H]21
(A) 8.00

---

Endpoint: IC50. System: SARS-CoV 3CLpro (Severe acute respiratory syndrome coronavirus). Items follow.
Entry rule: numbers only, all in nM.

The following molecules have reported results that may help.
CC(C)(C)[C@H](NC(=O)C(F)(F)F)C(=O)N1C[C@@H]2CCC[C@@H]2[C@H]1C(=O)NN(C[C@@H]1CCCNC1=O)C(=O)[C@H](F)Cl [Example 164a] = 16
CC1(C)[C@@H]2[C@@H](C(=O)NN(C[C@@H]3CCNC3=O)C(=O)[C@H](F)Cl)N(C(=O)c3cc(C(F)(F)F)cc(C(F)(F)F)c3)C[C@@H]21 [Example 177] = 232

Now consider the entry below.
(Q) Fill in: IC50 on SARS-CoV 3CLpro (Severe acute respiratory syndrome coronavirus), entry CC(C)(C)[C@H](NC(=O)[C@H]1CC1(F)F)C(=O)N1C[C@@H]2CCC[C@@H]2[C@H]1C(=O)NN(C[C@@H]1CCNC1=O)C(=O)[C@@H](F)Cl [Example 104]
(A) 20
